The origin of these recorded values is the supplement of paper PMC11061612.

Measured Bliss excess of individual entries
- System: KALS-1 (Glioblastoma);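 also: after 72 h of two-drug dosing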
- protocol-notes: Bliss excess, mean over the matrix (fraction); higher = more synergy
measured-attribute: Bliss excess

INSERT INTO measurements (molecule, result) VALUES
  ('COc1nnc2ccc(N3CCC(c4ccc(OCCN5CCN(C)C(=O)[C@H]5C)cc4)CC3)nn12 [AZD5153] + C[C@@H]1COCCN1C2=NC(=NC(=C2)C3(CC3)[S@](=N)(=O)C)C4=C5C=CNC5=NC=C4 [AZD6738] (first compound max 1 µM, 7x7, partner max 10 µM)', -0.0314),
  ('O=C(c1cc(Cc2n[nH]c(=O)c3ccccc23)ccc1F)N1CCN(C(=O)C2CC2)CC1 [Olaparib] + CC1(C)CCC(CN2CCN(c3ccc(C(=O)NS(=O)(=O)c4ccc(NCC5CCOCC5)c([N+](=O)[O-])c4)c(Oc4cnc5[nH]ccc5c4)c3)CC2)=C(c2ccc(Cl)cc2)C1 [Venetoclax] (first compound max 10 µM, 7x7, partner max 1 µM)', -0.0353),
  ('Cc1c2c(nn1C)CSCc1cc(n(C)n1)CSc1cc(c3ccccc3c1)OCCCc1c(C(=O)O)n(C)c3c-2c(Cl)ccc13 [AZD5991] + Cn1cnc2c(F)c(Nc3ccc(Br)cc3Cl)c(C(=O)NOCCO)cc21 [Selumetinib] (first compound max 1 µM, 7x7, partner max 3 µM)', -0.0897),
  ('Cn1cnc2c(F)c(Nc3ccc(Br)cc3Cl)c(C(=O)NOCCO)cc21 [Selumetinib] + CCN(CCO)CCCOc1ccc2c(Nc3cc(CC(=O)Nc4cccc(F)c4)[nH]n3)ncnc2c1 [AZD2811] (first compound max 10 µM, 7x7, partner max 1 µM)', -0.0093);

###

Measured combination Emax of individual entries
- Tested on: IST-MEL1 (Melanoma)
- protocol-notes: combination Emax (second highest fraction inhibited in the dose matrix, 72 h); higher = more inhibition; extreme values may be limits of the assay
measured-attribute: combination Emax

INSERT INTO assay_data (molecule, result) VALUES
  ('CN(CCO)CC[C@H](CSc1ccccc1)Nc1ccc(S(=O)(=O)NC(=O)c2ccc(N3CCC([C@@H](O)c4ccccc4-c4ccc(Cl)cc4)CC3)cc2)cc1S(=O)(=O)C(F)(F)F [AZD4320] + CC(=O)O[C@H]1C(=O)[C@@]2(C)[C@H]([C@H](OC(=O)c3ccccc3)[C@]3(O)C[C@H](OC(=O)[C@H](O)[C@@H](NC(=O)c4ccccc4)c4ccccc4)C(C)=C1C3(C)C)[C@]1(OC(C)=O)CO[C@@H]1C[C@@H]2O [Paclitaxel] (first compound max 1 µM, 7x7, partner max 3 µM)', 0.977),
  ('CCc1c2c(nc3ccc(O)cc13)-c1cc3c(c(=O)n1C2)COC(=O)[C@]3(O)CC [SN-38] + O=C(c1cc(Cc2n[nH]c(=O)c3ccccc23)ccc1F)N1CCN(C(=O)C2CC2)CC1 [Olaparib] (first compound max 0.3 µM, 7x7, partner max 10 µM)', 0.897),
  ('C[C@@H]1COCCN1c1cc(C2([S@](C)(=N)=O)CC2)nc(-c2ccnc3[nH]ccc23)n1 [AZD6738] + Nc1ccn([C@@H]2O[C@H](CO)[C@@H](O)C2(F)F)c(=O)n1 [Gemcitabine] (first compound max 10 µM, 7x7, partner max 0.3 µM)', 0.768);

###

- System: GAK (Melanoma)
- protocol-notes: combination Emax (second highest fraction inhibited in the dose matrix, 72 h); higher = more inhibition; extreme values may be limits of the assay
measured-attribute: combination Emax

INSERT INTO assay_data (compound, tgt, measured_attribute, result) VALUES
  ('Cc1c2c(nn1C)CSCc1cc(n(C)n1)CSc1cc(c3ccccc3c1)OCCCc1c(C(=O)O)n(C)c3c-2c(Cl)ccc13 [AZD5991] + CC(=O)O[C@H]1C(=O)[C@@]2(C)[C@H]([C@H](OC(=O)c3ccccc3)[C@]3(O)C[C@H](OC(=O)[C@H](O)[C@@H](NC(=O)c4ccccc4)c4ccccc4)C(C)=C1C3(C)C)[C@]1(OC(C)=O)CO[C@@H]1C[C@@H]2O [Paclitaxel] (first compound max 1 µM, 7x7, partner max 3 µM)', 'GAK (Melanoma)', 'combination Emax', 0.548),
  ('N#Cc1cnc(Nc2cc(NC[C@H]3CNCCO3)c(C(F)(F)F)cn2)cn1 [SRA737] + C=CCn1c(=O)c2cnc(Nc3ccc(N4CCN(C)CC4)cc3)nc2n1-c1cccc(C(C)(C)O)n1 [AZD1775] (first compound max 10 µM, partner max 1 µM)', 'GAK (Melanoma)', 'combination Emax', 0.841),
  ('COc1nnc2ccc(N3CCC(c4ccc(OCCN5CCN(C)C(=O)[C@H]5C)cc4)CC3)nn12 [AZD5153] + Cc1c2c(nn1C)CSCc1cc(n(C)n1)CSc1cc(c3ccccc3c1)OCCCc1c(C(=O)O)n(C)c3c-2c(Cl)ccc13 [AZD5991] (first compound max 1 µM, 7x7, partner max 1 µM)', 'GAK (Melanoma)', 'combination Emax', 0.836);

###

Measured combination Emax of individual entries
- System: HT-1080 (Other Solid Carcinomas)
- protocol-notes: combination Emax (second highest fraction inhibited in the dose matrix, 72 h); higher = more inhibition; extreme values may be limits of the assay
measured-attribute: combination Emax

INSERT INTO results (molecule, result) VALUES
  ('CC1(C)CCC(CN2CCN(c3ccc(C(=O)NS(=O)(=O)c4ccc(NCC5CCOCC5)c([N+](=O)[O-])c4)c(Oc4cnc5[nH]ccc5c4)c3)CC2)=C(c2ccc(Cl)cc2)C1 [Venetoclax] + C[C@@H]1COCCN1C2=NC(=NC(=C2)C3(CC3)[S@](=N)(=O)C)C4=C5C=CNC5=NC=C4 [AZD6738] (first compound max 1 µM, 7x7, partner max 10 µM)', 0.425),
  ('Cc1cc2ncnn2cc1Nc1ncc2c(n1)n(C1CCOCC1)c(=O)n2C [AZD7648] + CN(C)CCCOc1ccc(-c2ccc3ncc4c(c3c2)n(C2CCOCC2)c(=O)n4C)cn1 [AZD0156] (first compound max 10 µM, 7x7, partner max 1 µM)', 0.151),
  ('CC1(C)CCC(CN2CCN(c3ccc(C(=O)NS(=O)(=O)c4ccc(NCC5CCOCC5)c([N+](=O)[O-])c4)c(Oc4cnc5[nH]ccc5c4)c3)CC2)=C(c2ccc(Cl)cc2)C1 [Venetoclax] + CCN(CCO)CCCOc1ccc2c(Nc3cc(CC(=O)Nc4cccc(F)c4)[nH]n3)ncnc2c1 [AZD2811] (first compound max 1 µM, 7x7, partner max 1 µM)', 0.27);

###

Measured combination Emax of individual entries
- Test system: MONO-MAC-6 (Acute Myeloid Leukemia)
- protocol-notes: combination Emax (second highest fraction inhibited in the dose matrix, 72 h); higher = more inhibition; extreme values may be limits of the assay
measured-attribute: combination Emax

INSERT INTO results (compound, measured_attribute, result) VALUES
  ('NC1(C(=O)N[C@@H](CCO)c2ccc(Cl)cc2)CCN(c2ncnc3[nH]ccc23)CC1 [Capivasertib] + C[C@@H]1COCCN1C2=NC(=NC(=C2)C3(CC3)[S@](=N)(=O)C)C4=C5C=CNC5=NC=C4 [AZD6738] (first compound max 10 µM, 7x7, partner max 10 µM)', 'combination Emax', 0.917),
  ('C[C@@H](Oc1cc(-c2cnn(C3CCNCC3)c2)cnc1N)c1c(Cl)ccc(F)c1Cl [Crizotinib] + Cn1cnc2c(F)c(Nc3ccc(Br)cc3Cl)c(C(=O)NOCCO)cc21 [Selumetinib] (first compound max 10 µM, 7x7, partner max 10 µM)', 'combination Emax', 0.991),
  ('CS(=O)(=O)CCNCc1ccc(-c2ccc3ncnc(Nc4ccc(OCc5cccc(F)c5)c(Cl)c4)c3c2)o1 [Lapatinib] + Cn1cnc2c(F)c(Nc3ccc(Br)cc3Cl)c(C(=O)NOCCO)cc21 [Selumetinib] (first compound max 10 µM, 7x7, partner max 10 µM)', 'combination Emax', 0.437),
  ('Cc1c2c(nn1C)CSCc1cc(n(C)n1)CSc1cc(c3ccccc3c1)OCCCc1c(C(=O)O)n(C)c3c-2c(Cl)ccc13 [AZD5991] + Cc1cc2ncnn2cc1Nc1ncc2c(n1)n(C1CCOCC1)c(=O)n2C [AZD7648] (first compound max 1 µM, 7x7, partner max 10 µM)', 'combination Emax', 1),
  ('CN(CCO)CC[C@H](CSc1ccccc1)Nc1ccc(S(=O)(=O)NC(=O)c2ccc(N3CCC([C@@H](O)c4ccccc4-c4ccc(Cl)cc4)CC3)cc2)cc1S(=O)(=O)C(F)(F)F [AZD4320] + CN(C)CCCOc1ccc(-c2ccc3ncc4c(c3c2)n(C2CCOCC2)c(=O)n4C)cn1 [AZD0156] (first compound max 1 µM, 7x7, partner max 1 µM)', 'combination Emax', 0.422),
  ('Cn1cnc2c(F)c(Nc3ccc(Br)cc3Cl)c(C(=O)NOCCO)cc21 [Selumetinib] + CCN(CCO)CCCOc1ccc2c(Nc3cc(CC(=O)Nc4cccc(F)c4)[nH]n3)ncnc2c1 [AZD2811] (first compound max 10 µM, 7x7, partner max 1 µM)', 'combination Emax', 0.703),
  ('Cc1cc2ncnn2cc1Nc1ncc2c(n1)n(C1CCOCC1)c(=O)n2C [AZD7648] + COc1cc([C@@H]2c3cc4c(cc3[C@@H](O[C@@H]3O[C@@H]5CO[C@@H](C)O[C@H]5[C@H](O)[C@H]3O)[C@H]3COC(=O)[C@H]23)OCO4)cc(OC)c1O [Etoposide] (first compound max 10 µM, 7x7, partner max 10 µM)', 'combination Emax', 1),
  ('C[C@@H](Nc1cc(F)cc(F)c1)c1cc(C(=O)N(C)C)cc2c(=O)cc(N3CCOCC3)oc12 [AZD8186] + C1CN(CCC1(C(=O)N[C@@H](CCO)C2=CC=C(C=C2)Cl)N)C3=NC=NC4=C3C=CN4 [AZD5363] (first compound max 10 µM, 7x7, partner max 10 µM)', 'combination Emax', 0.547),
  ('CN(CCO)CC[C@H](CSc1ccccc1)Nc1ccc(S(=O)(=O)NC(=O)c2ccc(N3CCC([C@@H](O)c4ccccc4-c4ccc(Cl)cc4)CC3)cc2)cc1S(=O)(=O)C(F)(F)F [AZD4320] + C[C@@H]1COCCN1C2=NC(=NC(=C2)C3(CC3)[S@](=N)(=O)C)C4=C5C=CNC5=NC=C4 [AZD6738] (first compound max 1 µM, 7x7, partner max 10 µM)', 'combination Emax', 0.943),
  ('N#Cc1cnc(Nc2cc(NC[C@H]3CNCCO3)c(C(F)(F)F)cn2)cn1 [SRA737] + O=c1[nH]cc(F)c(=O)[nH]1 [5-Fluorouracil] (first compound max 10 µM, 7x7, partner max 20 µM)', 'combination Emax', 1),
  ('CC1(C)CCC(CN2CCN(c3ccc(C(=O)NS(=O)(=O)c4ccc(NCC5CCOCC5)c([N+](=O)[O-])c4)c(Oc4cnc5[nH]ccc5c4)c3)CC2)=C(c2ccc(Cl)cc2)C1 [Venetoclax] + CCN(CCO)CCCOc1ccc2c(Nc3cc(CC(=O)Nc4cccc(F)c4)[nH]n3)ncnc2c1 [AZD2811] (first compound max 1 µM, 7x7, partner max 1 µM)', 'combination Emax', 0.981),
  ('Cn1cnc2c(F)c(Nc3ccc(Br)cc3Cl)c(C(=O)NOCCO)cc21 [Selumetinib] + C=CCn1c(=O)c2cnc(Nc3ccc(N4CCN(C)CC4)cc3)nc2n1-c1cccc(C(C)(C)O)n1 [AZD1775] (first compound max 10 µM, partner max 1 µM)', 'combination Emax', 0.743),
  ('Cc1c2c(nn1C)CSCc1cc(n(C)n1)CSc1cc(c3ccccc3c1)OCCCc1c(C(=O)O)n(C)c3c-2c(Cl)ccc13 [AZD5991] + CS(=O)(=O)CCNCc1ccc(-c2ccc3ncnc(Nc4ccc(OCc5cccc(F)c5)c(Cl)c4)c3c2)o1 [Lapatinib] (first compound max 1 µM, 7x7, partner max 10 µM)', 'combination Emax', 1);
